- measuredTarget: quinone reductase 2 (NQO2) (Homo sapiens, UniProt P16083)
- Sequence (P16083 1-231): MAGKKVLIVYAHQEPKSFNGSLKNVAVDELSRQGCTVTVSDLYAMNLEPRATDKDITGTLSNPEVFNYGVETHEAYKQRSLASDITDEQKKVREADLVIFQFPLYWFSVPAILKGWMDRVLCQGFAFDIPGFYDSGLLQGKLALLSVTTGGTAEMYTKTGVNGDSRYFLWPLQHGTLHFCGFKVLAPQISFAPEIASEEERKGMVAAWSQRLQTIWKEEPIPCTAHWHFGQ
measuredParameter: pIC50
pIC50 here: minus log base 10 of the concentration, concentration in moles per litre.

Name the recorded pIC50 of the compound listed here: Cc1cn(-c2cc(NC(=O)c3ccc(C)c(Nc4nccc(-c5cccnc5)n4)c3)cc(C(F)(F)F)c2)cn1 [nilotinib]
6.42
